Value source: the Kinase Knowledgebase extract (Sharma et al. 2016)

pIC50: −log10 of the molar value.
// endpoint pIC50 / system MAPK14 (human) (UniProt Q16539)
measurement type: pIC50

Here is how some compounds turned out for pIC50.
Sample `CSc1nc(-c2ccc(F)cc2)c(-c2ccncc2)n1NC(=O)c1cc2ccccc2o1` — what was its pIC50? 6.06

Sample `CSc1nc(-c2ccc(F)cc2)c(-c2ccncc2)n1NC(=O)Cc1ccc(F)cc1` — what was its pIC50? 6.61

Sample `CSc1nc(-c2ccc(F)cc2)c(-c2ccncc2)n1NC(=O)c1ccc(C)c(F)c1` — what was its pIC50? 6.62

(A) CSc1nc(-c2ccc(F)cc2)c(-c2ccncc2)n1NC(=O)C(C)c1ccccc1 (stereo not given)
(B) CSc1nc(-c2ccc(F)cc2)c(-c2ccncc2)n1NC(=O)c1ccco1
(C) CSc1nc(-c2ccc(F)cc2)c(-c2ccncc2)n1NC(=O)COc1ccccc1
(D) Cn1nc(-c2ccc(F)cc2)c(-c2ccncc2)c1NC(=O)Cc1ccc(F)cc1
(E) CSc1nc(-c2ccc(F)cc2)c(-c2ccncc2)n1NC(=O)Cc1ccccc1Cl
Order by pIC50, ascending. Please express your ranking as an ordered list of the labels. C, B, A, E, D
(C: 5.97, B: 6.51, A: 7.02, E: 7.24, D: 7.54)

(1) CSc1nc(-c2ccc(F)cc2)c(-c2ccncc2)n1NC(=O)c1ccccc1
(2) Cn1nc(-c2ccc(F)cc2)c(-c2ccncc2)c1NC(=O)Cc1ccccc1Cl
Which value of pIC50 is greater, the one for 1 or the one for 2 ? Returns: label corresponding to the selected item. 2
